# Tested on: T1, PRLR-expressing cells (T47D) (Homo sapiens, UniProt P16471)
# T1 construct: a native PRLR expressing cell line (T47D); endogenous in cells; host or cells: T47D
# T1 sequence (P16471 25-622): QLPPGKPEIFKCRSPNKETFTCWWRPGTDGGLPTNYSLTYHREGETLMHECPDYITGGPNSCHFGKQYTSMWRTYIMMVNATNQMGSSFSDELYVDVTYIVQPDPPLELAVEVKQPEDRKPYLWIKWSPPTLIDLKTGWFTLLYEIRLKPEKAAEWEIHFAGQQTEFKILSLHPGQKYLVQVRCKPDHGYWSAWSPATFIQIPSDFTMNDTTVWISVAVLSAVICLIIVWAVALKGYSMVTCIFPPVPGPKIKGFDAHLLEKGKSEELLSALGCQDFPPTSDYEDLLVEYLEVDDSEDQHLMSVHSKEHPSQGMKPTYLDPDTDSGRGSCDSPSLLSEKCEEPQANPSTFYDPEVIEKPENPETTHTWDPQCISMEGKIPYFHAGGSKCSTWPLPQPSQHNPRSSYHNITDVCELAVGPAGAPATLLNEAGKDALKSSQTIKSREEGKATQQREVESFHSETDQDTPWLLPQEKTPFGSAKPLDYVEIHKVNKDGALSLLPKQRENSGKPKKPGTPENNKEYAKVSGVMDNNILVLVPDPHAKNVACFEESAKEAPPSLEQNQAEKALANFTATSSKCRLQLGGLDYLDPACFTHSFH
# Procedure details: Antibody binding and internalization by PRLR-expressing cells (imaging)
# Format: cell-based
# Recorded conditions: [mAb] (0.67 nM), whole cell alexa488 intensity at 37° C.
Measured property: % Total Binding relative to Control I

1) H1H6782P: anti-PRLR antibody, human IgG1 Fc; HCVR/LCVR SEQ ID NOs 66/74; non-blocking (antibody, V domains shown, human IgG1 Fc) VH: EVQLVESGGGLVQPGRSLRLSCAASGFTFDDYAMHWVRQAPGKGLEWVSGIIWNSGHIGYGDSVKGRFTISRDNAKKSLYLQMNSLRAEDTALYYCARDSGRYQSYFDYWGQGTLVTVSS VL: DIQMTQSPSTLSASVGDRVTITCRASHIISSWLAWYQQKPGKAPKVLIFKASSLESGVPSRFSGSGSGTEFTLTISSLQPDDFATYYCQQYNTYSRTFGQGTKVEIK; 209.9%
2) H1H6792P: anti-PRLR antibody, human IgG1 Fc; HCVR/LCVR SEQ ID NOs 130/138 (antibody, V domains shown, human IgG1 Fc) VH: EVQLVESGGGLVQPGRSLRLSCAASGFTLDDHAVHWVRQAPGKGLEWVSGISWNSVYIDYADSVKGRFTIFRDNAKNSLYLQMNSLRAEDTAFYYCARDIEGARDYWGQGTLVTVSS VL: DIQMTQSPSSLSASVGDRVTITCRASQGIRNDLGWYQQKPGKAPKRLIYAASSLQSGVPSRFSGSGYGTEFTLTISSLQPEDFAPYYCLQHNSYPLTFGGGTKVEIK; 110.6%
3) H1H6774P: anti-PRLR antibody, human IgG1 Fc; HCVR/LCVR SEQ ID NOs 34/42 (antibody, V domains shown, human IgG1 Fc) VH: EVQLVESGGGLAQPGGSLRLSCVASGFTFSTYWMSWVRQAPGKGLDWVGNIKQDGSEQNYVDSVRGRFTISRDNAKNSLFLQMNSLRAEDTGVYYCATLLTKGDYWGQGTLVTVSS VL: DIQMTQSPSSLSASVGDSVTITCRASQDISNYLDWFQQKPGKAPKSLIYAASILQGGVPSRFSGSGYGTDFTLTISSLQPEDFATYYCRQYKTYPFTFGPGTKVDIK; 173.7%
4) H1H6797P: anti-PRLR antibody, human IgG1 Fc; HCVR/LCVR SEQ ID NOs 178/186 (antibody, V domains shown, human IgG1 Fc) VH: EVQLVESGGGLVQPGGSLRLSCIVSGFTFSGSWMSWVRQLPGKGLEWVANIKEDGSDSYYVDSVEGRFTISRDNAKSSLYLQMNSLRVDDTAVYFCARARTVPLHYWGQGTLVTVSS VL: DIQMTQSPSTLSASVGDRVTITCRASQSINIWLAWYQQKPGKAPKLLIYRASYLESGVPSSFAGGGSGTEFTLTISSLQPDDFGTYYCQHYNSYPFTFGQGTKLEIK; 151.2%
5) H1H6793P: anti-PRLR antibody, human IgG1 Fc; HCVR/LCVR SEQ ID NOs 146/154 (antibody, V domains shown, human IgG1 Fc) VH: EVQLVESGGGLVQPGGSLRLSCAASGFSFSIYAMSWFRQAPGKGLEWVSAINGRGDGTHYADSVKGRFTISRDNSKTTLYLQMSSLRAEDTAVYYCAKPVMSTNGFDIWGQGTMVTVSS VL: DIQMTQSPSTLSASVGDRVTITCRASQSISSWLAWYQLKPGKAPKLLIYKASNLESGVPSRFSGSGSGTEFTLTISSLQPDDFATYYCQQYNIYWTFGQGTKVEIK; 177.9%
6) H1H6790P: anti-PRLR antibody, human IgG1 Fc; HCVR/LCVR SEQ ID NOs 114/122 (antibody, V domains shown, human IgG1 Fc) VH: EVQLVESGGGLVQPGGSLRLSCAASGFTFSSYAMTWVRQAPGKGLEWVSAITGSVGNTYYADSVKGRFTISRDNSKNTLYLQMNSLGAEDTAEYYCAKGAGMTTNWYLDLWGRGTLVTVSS VL: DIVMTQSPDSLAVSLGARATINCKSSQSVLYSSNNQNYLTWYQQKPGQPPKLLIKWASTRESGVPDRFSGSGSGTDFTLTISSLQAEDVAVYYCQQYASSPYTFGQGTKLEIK; 122.8%
